Cited source: patent US20040253665A1

Test system: peptide-producing enzyme (Mono S fraction) from Empedobacter brevis strain FERM BP-8113
METHOD: Enzyme substrate specificity (1)-(10), (13), (14)
Assay type: biochemical
SETTINGS: carboxy component (label) 100 mM, 200 mM L-glutamine, pH 9.0, 25° C., 2 hours
MEASURED_ATTRIBUTE: L-Ala-L-Gln produced (mM)
Numeric only. Scale: mM

Kindly note the recorded L-Ala-L-Gln produced for COC(=O)[C@H](C)N.Cl [L-Alanine methyl ester.HCl, L-alanine methyl ester hydrochloride] , which is 84.3

Lab book: L-Ala-L-Gln produced of CCOC(=O)[C@H](C)N.Cl [L-Alanine ethyl ester.HCl] noted as 91.5

The value of L-Ala-L-Gln produced measured for the compound CC(C)OC(=O)[C@H](C)N.Cl [L-Alanine isopropyl ester.HCl] turned out to be 78.9

For this compound ( C[C@H](N)C(=O)OC(C)(C)C.Cl [L-Alanine-t-butyl ester.HCl] ), measured L-Ala-L-Gln produced is 7.5

* * *

Test system: Empedobacter brevis strain FERM BP-8113 microbial cells
METHOD: Production of peptide using microbial cells of Empedobacter brevis
Type: cell-based
SETTINGS: microbial cell suspension 100 g/L mixed 1:1 with 200 mM carboxy component and 400 mM amino acid, pH 9.0, 10 mM EDTA, 18° C., 2 hours
Residues, ends and D or L forms follow the SMILES beside them.
Decide using Produced peptide alone. Strictly below 60 mM: Condition met. Equal to or above 60 mM: Condition not met.

## Input Could you please tell me whether Produced peptide recorded for CC[C@H](C)[C@H](N)C(=O)N[C@@H](CCSC)C(=O)O [L-Ile-L-Met] (H-Ile-Met-OH) is less than 60 mM?
## Output Condition met

## Input # TODO verify Produced peptide < 60 mM strictly for this molecule: C[C@H](N)C(=O)N[C@@H](CCCN=C(N)N)C(=O)O [L-Ala-L-Arg] (H-Ala-Arg-OH)
## Output Condition not met

## Input Here's an entry: C[C@H](N)C(=O)N[C@@H](Cc1ccccc1)C(=O)O [L-Ala-L-Phe] . Is its Produced peptide below 60 mM?
## Output Condition not met

## Input Consider the molecule CSCC[C@H](NC(=O)[C@H](C)N)C(=O)O [L-Ala-L-Met] (H-Ala-Met-OH) . Is its Produced peptide strictly less than 60 mM?
## Output Condition not met

## Input Does NCC(=O)N[C@@H](Cc1cnc[nH]1)C(=O)O [Gly-L-His] (H-Gly-His-OH) have Produced peptide strictly under 60 mM?
## Output Condition met

* * *

What Produced peptide was measured for each of the following?
Test system: enzyme (SP-Sepharose HP fraction) derived from Sphingobacterium sp. strain FERM BP-8124
Assay type: biochemical
SETTINGS: Table 15-1; carboxy component 100 mM, amine component 150 mM, 0.33 units enzyme, pH 9.0, 25° C., 1.5 hours
Non-standard residues stand in square brackets, D forms with d. Residues, ends and D or L forms follow the SMILES beside them.
Supply the numeric figure in mM, leaving out any unit text.

Lab entry: enzyme (SP-Sepharose HP fraction) derived from Sphingobacterium sp. strain FERM BP-8124 assay, molecule C[C@H](N)C(=O)N[C@H](C(=O)O)[C@@H](C)O [L-Ala-L-Thr] (H-Ala-Thr-OH) , Produced peptide = 47.3

Measured Produced peptide for this entry CSCC[C@H](NC(=O)[C@H](C)N)C(=O)O [L-Ala-L-Met] (H-Ala-Met-OH) on enzyme (SP-Sepharose HP fraction) derived from Sphingobacterium sp. strain FERM BP-8124: 86.9

GET /values?item= C[C@@H](N)C(=O)N[C@@H](CO)C(=O)O [D-Ala-L-Ser] (H-[dA]-Ser-OH) &system= enzyme (SP-Sepharose HP fraction) derived from Sphingobacterium sp. strain FERM BP-8124 returns Produced peptide: 24.1

For the molecule C[C@H](N)C(=O)N[C@@H](Cc1cnc[nH]1)C(=O)O [L-Ala-L-His] (H-Ala-His-OH) , the measured Produced peptide on enzyme (SP-Sepharose HP fraction) derived from Sphingobacterium sp. strain FERM BP-8124 was 73.6

Log: enzyme (SP-Sepharose HP fraction) derived from Sphingobacterium sp. strain FERM BP-8124, molecule C[C@@H](N)C(=O)N[C@H](CO)C(=O)O [D-Ala-D-Ser] (H-[dA]-[dS]-OH) , Produced peptide = 5.5

Given the molecule C[C@H](N)C(=O)N[C@@H](CO)C(=O)O [L-Ala-L-Ser] (H-Ala-Ser-OH) and test system enzyme (SP-Sepharose HP fraction) derived from Sphingobacterium sp. strain FERM BP-8124, the measured Produced peptide is 43.8

Record C[C@H](N)C(=O)N[C@@H](CCCN=C(N)N)C(=O)O [L-Ala-L-Arg] (H-Ala-Arg-OH) / enzyme (SP-Sepharose HP fraction) derived from Sphingobacterium sp. strain FERM BP-8124, Produced peptide recorded as 72.2

# Produced peptide measured on enzyme (SP-Sepharose HP fraction) derived from Sphingobacterium sp. strain FERM BP-8124 for item C[C@H](N)C(=O)N1CCC[C@H]1C(=O)O [L-Ala-L-Pro] (H-Ala-Pro-OH) = 1.5

Bench note, enzyme (SP-Sepharose HP fraction) derived from Sphingobacterium sp. strain FERM BP-8124: entry C[C@H](N)C(=O)NCC(=O)O [L-Ala-Gly] (H-Ala-Gly-OH) , its Produced peptide = 11.1

Item: C[C@H](N)C(=O)N[C@@H](CCC(=O)O)C(=O)O [L-Ala-L-Glu] (H-Ala-Glu-OH) | System: enzyme (SP-Sepharose HP fraction) derived from Sphingobacterium sp. strain FERM BP-8124 | Produced peptide: 39.1

Lab note: molecule C[C@H](N)C(=O)N[C@@H](CC(N)=O)C(=O)O [L-Ala-L-Asn] (H-Ala-Asn-OH) tested on enzyme (SP-Sepharose HP fraction) derived from Sphingobacterium sp. strain FERM BP-8124; recorded Produced peptide was 52.3

Field Produced peptide (system: enzyme (SP-Sepharose HP fraction) derived from Sphingobacterium sp. strain FERM BP-8124) for entry C[C@H](N)C(=O)N[C@@H](Cc1ccc(O)cc1)C(=O)O [L-Ala-L-Tyr] (H-Ala-Tyr-OH) = 11.1

Noted Produced peptide for C[C@H](N)C(=O)N[C@@H](Cc1c[nH]c2ccccc12)C(=O)O [L-Ala-L-Trp] (H-Ala-Trp-OH) , tested on enzyme (SP-Sepharose HP fraction) derived from Sphingobacterium sp. strain FERM BP-8124: 46.0
